# credit: the supplement of paper PMC10567573

B1: MNAT1 (parent)
chain: LAPIHKLEEALYEYQPLQIETYGP

Variants of: B1
procedure details: protein stability index of a GFP-peptide fusion (GPS, HEK-293T) (PSI 1-6); higher = more stable;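 also: lentivirally expressed fusions sorted by FACS into six bins by GFP to DsRed ratio, PSI derived from sequencing read proportions per bin multiplied by bin number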
condition: c terminus: a fixed tail appended
Kind request: treat 2 as inclusive, so protein stability index at 2 or higher is Y, anything lower is N.

Y22L    Y
A10W    N
Y14V    Y

Problem: Determine whether this variant has protein stability index no lower than 2: `A10H`
Result: Y

Problem: Determine whether this variant has protein stability index no lower than 2: `T21A`
Result: Y

Problem: Determine whether this variant has protein stability index no lower than 2: `I4F`
Result: N

Problem: Is it the case that `I4V` has protein stability index reaching or exceeding 2?
Result: Y

Problem: Check this variant for protein stability index at or above 2: `L17G`
Result: Y

Problem: Given the entry `A10Y` , answer whether its protein stability index meets or surpasses 2.
Result: Y
